assayed target: pooled human IgG (human IgG1,2,3 and 4)
quantity name: Enzyme Activity Endpoint Assay: IgG (ng/µL)
Report the figure in ng/µL without appending any unit label.

Recorded Enzyme Activity Endpoint Assay: IgG for PRT-316 (protein) MTITSVWTKGVTPPTPEDFRKNNEDVLHAPYVANQGWYDITKTFDGKDNLLCGAATAGNMLHWWFDQNKEEIERYLKKHPEKQKIIFNNQELFDVKAAIDTKDSQTNSKLFNYFRDKAFPNLSARQLGVMPDLVLDMFINGYYLNLGKTQSTDVNRPYQDKDKRGGIFDAVFTRGDQTTLLTARHDLKNKGLNEISDLIKQELTEGKALALSHTYANVRINHVINLWGADFDAEGNLIAIYVTDSDANASIGMKKYFVGRNANGKVAISAKKIEGDNIGAQVLGLFTLSTGQDIWQKLS , please?
80
